- target-system: AKT1 (Homo sapiens (Human), UniProt P31749)
- Sequence (P31749 whole entry): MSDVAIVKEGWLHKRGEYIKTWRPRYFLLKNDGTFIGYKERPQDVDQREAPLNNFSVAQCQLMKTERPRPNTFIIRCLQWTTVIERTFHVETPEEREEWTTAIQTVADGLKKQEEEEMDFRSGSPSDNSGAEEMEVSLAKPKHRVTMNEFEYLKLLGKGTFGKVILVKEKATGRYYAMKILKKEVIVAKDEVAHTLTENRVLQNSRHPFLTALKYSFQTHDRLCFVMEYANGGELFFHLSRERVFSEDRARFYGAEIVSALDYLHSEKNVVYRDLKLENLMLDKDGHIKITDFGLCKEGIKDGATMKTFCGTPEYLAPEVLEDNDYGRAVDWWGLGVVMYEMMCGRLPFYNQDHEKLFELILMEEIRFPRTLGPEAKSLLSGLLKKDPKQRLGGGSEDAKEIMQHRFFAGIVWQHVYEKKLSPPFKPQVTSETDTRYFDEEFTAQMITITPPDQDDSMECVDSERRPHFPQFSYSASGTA
- measurement-notes: Inactive Akt Alpha Screen Assay
- measurement-setup: non *labeled: Akt Alpha Screen assay; read-out: AKT1 biochemical assay, IC50
attribute-measured: IC50

| compound | data-value |
| --- | --- |
| CCCc1ccccc1NC(=O)NC1CCN(Cc2ccc(-c3nnc4n3-c3cccnc3Nc3ccccc3-4)cc2)CC1 [Example 177] | 0.77 µM |
| O=C(Nc1ccc(-c2nnc3n2-c2cccnc2Nc2ccccc2-3)cc1)c1ccccc1 [Example 59] | 0.07 µM |
| c1ccc(OC2CCCN(Cc3ccc(-c4nnc5n4-c4cccnc4Nc4ccccc4-5)cc3)C2)cc1 (stereo not shown) [Example 189] | 0.92 µM |
| Clc1ccc2nc(CCNCc3ccc(-c4nnc5n4-c4cccnc4Nc4ccccc4-5)cc3)[nH]c2c1 [Example 203] | 0.15 µM |

###

- target-system: AKT1 (Homo sapiens (Human), UniProt P31749)
- measurement-notes: Inactive Akt Alpha Screen Assay
- measurement-setup: non *labeled: Akt Alpha Screen assay; read-out: AKT1 biochemical assay, IC50
This section presents molecules with their documented IC50 values.
attribute-measured: IC50 (nM)

| line-notation | attribute-measured | data-value |
| --- | --- | --- |
| COc1cccc(NC(=O)NCc2ccc(-c3nnc4n3-c3cccnc3Nc3ccccc3-4)cc2)c1 | IC50 | 130 |
| Cc1ccccc1NC(=O)NC1CCN(Cc2ccc(-c3nnc4n3-c3cccnc3Nc3ccccc3-4)cc2)CC1 | IC50 | 700 |
| O=S(=O)(NCc1ccc(-c2nnc3n2-c2cccnc2Nc2ccccc2-3)cc1)c1ccccc1F | IC50 | 170 |
| O=C(NCc1ccccc1Cl)NC1CCN(Cc2ccc(-c3nnc4n3-c3cccnc3Nc3ccccc3-4)cc2)CC1 | IC50 | 910 |
| CCCNCc1ccc(-c2nnc3n2-c2cccnc2Nc2ccccc2-3)cc1 | IC50 | 5800 |
| O=S(=O)(CC1CCCCC1)NC1CCN(Cc2ccc(-c3nnc4n3-c3cccnc3Nc3ccccc3-4)cc2)CC1 | IC50 | 3400 |
| CC(C)(C)c1ccc(C(=O)Nc2ccc(-c3nnc4n3-c3cccnc3Nc3ccccc3-4)cc2)cc1 | IC50 | 230 |
| FC(F)(F)c1ccc(-c2nnc3n2-c2cccnc2Nc2ccccc2-3)cc1 | IC50 | 30000 |

###

- target-system: AKT1 (Homo sapiens (Human), UniProt P31749)
- measurement-notes: Inactive Akt Alpha Screen Assay
- measurement-setup: non *labeled: Akt Alpha Screen assay; read-out: AKT1 biochemical assay, IC50
pIC50: −log10 of the molar value.

| line-notation | pIC50 |
| --- | --- |
| O=C(c1ccc(F)c(F)c1)N1CCN(Cc2ccc(-c3nnc4n3-c3cccnc3Nc3ccccc3-4)cc2)CC1 | 5.31 |
| NC1(c2ccc(-c3nnc4n3-c3cccnc3Nc3ccc(Br)cc3-4)cc2)CCC1 | 6.89 |
| CC(C)CS(=O)(=O)NC1CCN(Cc2ccc(-c3nnc4n3-c3cccnc3Nc3ccccc3-4)cc2)CC1 | 5.19 |
| NC1(c2ccc(-c3nnc4n3-c3cc(-c5ccccc5)cnc3Nc3ccccc3-4)cc2)CCC1 | 5.59 |

###

- target-system: AKT1 (Homo sapiens (Human), UniProt P31749)
- measurement-notes: Inactive Akt HTRF Assay (AKT1)
- measurement-setup: *labeled: Akt HTFR assay; read-out: AKT1 biochemical assay, IC50

| line-notation | IC50 [µM] |
| --- | --- |
| NCCc1ccc(-c2nnc3n2-c2cccnc2Nc2ccccc2-3)cc1 | 14 |
| NC1CCN(C(=O)c2ccc(-c3nnc4n3-c3cccnc3Nc3ccccc3-4)cc2)CC1 | 70 |
| O=C(c1ccc(-c2nnc3n2-c2cccnc2Nc2ccccc2-3)cc1)N1CCNCC1 | 17 |
| COc1cccc(C(=O)NC2CCN(Cc3ccc(-c4nnc5n4-c4cccnc4Nc4ccccc4-5)cc3)CC2)c1 | 7.6 |
| CC(C)(C)OC(=O)N1CCN(C(=O)c2ccc(-c3nnc4n3-c3cccnc3Nc3ccccc3-4)cc2)CC1 | 41 |
| CC(C)(C)OC(=O)NC1CCN(C(=O)c2ccc(-c3nnc4n3-c3cccnc3Nc3ccccc3-4)cc2)CC1 | 56 |
| CC(C)(C)OC(=O)NCc1ccc(-c2nnc3n2-c2cccnc2Nc2ccccc2-3)cc1 | 14 |
| CC(C)(C)OC(=O)NCCc1ccc(-c2nnc3n2-c2cccnc2Nc2ccccc2-3)cc1 | 4.3 |

###

- target-system: AKT1 (Homo sapiens (Human), UniProt P31749)
- measurement-notes: Inactive Akt Alpha Screen Assay
- measurement-setup: non *labeled: Akt Alpha Screen assay; read-out: AKT1 biochemical assay, IC50
Where a name gives a salt, the structure may show the parent alone.
attribute-measured: log10 IC50 (log10 of the value in nM)

| molecule | target-system | log10 IC50 |
| --- | --- | --- |
| Cn1ccc(S(=O)(=O)NCc2ccc(-c3nnc4n3-c3cccnc3Nc3ccccc3-4)cc2)n1 | AKT1 (Homo sapiens (Human), UniProt P31749) | 2.08 |
| Cc1ccc(S(=O)(=O)NC2(c3ccc(-c4nnc5n4-c4cccnc4Nc4ccccc4-5)cc3)CCC2)cc1 | AKT1 (Homo sapiens (Human), UniProt P31749) | 2.53 |
| O=C(NC1(c2ccc(-c3nnc4n3-c3ccc(Cl)nc3Nc3ccccc3-4)cc2)CCC1)C(F)(F)F | AKT1 (Homo sapiens (Human), UniProt P31749) | 3.97 |
| CN(CCc1ccccc1)Cc1ccc(-c2nnc3n2-c2cccnc2Nc2ccccc2-3)cc1 | AKT1 (Homo sapiens (Human), UniProt P31749) | 2.89 |
| O=S(=O)(NC1(c2ccc(-c3nnc4n3-c3cccnc3Nc3ccccc3-4)cc2)CCC1)c1ccccc1 | AKT1 (Homo sapiens (Human), UniProt P31749) | 2.45 |
| COCCNCc1ccc(-c2nnc3n2-c2cccnc2Nc2ccccc2-3)cc1 | AKT1 (Homo sapiens (Human), UniProt P31749) | 3.66 |
| OCc1ccc(-c2nnc3n2-c2cccnc2Nc2ccc(Br)cc2-3)cc1 | AKT1 (Homo sapiens (Human), UniProt P31749) | 3.72 |
| c1ccc2c(c1)Nc1ncccc1-n1c(-c3ccc4ccccc4c3)nnc1-2 [hydrochloride] | AKT1 (Homo sapiens (Human), UniProt P31749) | 4.46 |
| COc1ccc(NC(=O)NC2CCN(Cc3ccc(-c4nnc5n4-c4cccnc4Nc4ccccc4-5)cc3)CC2)cc1Cl | AKT1 (Homo sapiens (Human), UniProt P31749) | 3.08 |
| O=c1[nH]c(-c2ccccc2)cn1C1CCN(Cc2ccc(-c3nnc4n3-c3cccnc3Nc3ccccc3-4)cc2)CC1 | AKT1 (Homo sapiens (Human), UniProt P31749) | 1.68 |
| O=C(Nc1ccc(-c2nnc3n2-c2cccnc2Nc2ccccc2-3)cc1)c1ccc(F)cc1 | AKT1 (Homo sapiens (Human), UniProt P31749) | 2.04 |

###

- target-system: UniProtKB P31749
- measurement-notes: Inactive Akt Alpha Screen Assay
- measurement-setup: non *labeled: Akt Alpha Screen assay; read-out: AKT1 biochemical assay, IC50
Recorded IC50 determines the group label, using band 1 = under 0.8 µM, band 2 = from 0.8 µM up to 3 µM, band 3 = 3 µM and over

| line-notation | answer-label |
| --- | --- |
| O=C(NC1(c2ccc(-c3nnc4n3-c3cccnc3Nc3ccccc3-4)cc2)CCC1)c1ccc(F)cc1 | band 1 |
| O=C(c1ccccn1)N1CCN(Cc2ccc(-c3nnc4n3-c3cccnc3Nc3ccccc3-4)cc2)CC1 | band 3 |
| COc1ccccc1C(=O)Nc1ccc(-c2nnc3n2-c2cccnc2Nc2ccccc2-3)cc1 | band 1 |
| Nc1ccc(-c2nnc3n2-c2ccccc2Nc2ccccc2-3)cc1 | band 2 |
| N#Cc1ccc(C(=O)Nc2ccc(-c3nnc4n3-c3cccnc3Nc3ccccc3-4)cc2)cc1 | band 1 |
| Cc1nc(C)c(S(=O)(=O)NC2CCN(Cc3ccc(-c4nnc5n4-c4cccnc4Nc4ccccc4-5)cc3)CC2)s1 | band 3 |
| N#Cc1cccc(C(=O)N2CCN(Cc3ccc(-c4nnc5n4-c4cccnc4Nc4ccccc4-5)cc3)CC2)c1 | band 2 |
| CC(C)(C)OC(=O)NC1CCN(Cc2ccc(-c3nnc4n3-c3cccnc3Nc3ccccc3-4)cc2)CC1 | band 2 |
| CC(C)CN(C)Cc1ccc(-c2nnc3n2-c2cccnc2Nc2ccccc2-3)cc1 | band 3 |
| O=S(=O)(NCc1ccc(-c2nnc3n2-c2cccnc2Nc2ccccc2-3)cc1)c1cccc(Cl)c1 | band 1 |
| O=C(c1ccc(F)cc1)N1CCN(Cc2ccc(-c3nnc4n3-c3cccnc3Nc3ccccc3-4)cc2)CC1 | band 3 |
| O=C(NCCc1ccc(Cl)cc1)NC1CCN(Cc2ccc(-c3nnc4n3-c3cccnc3Nc3ccccc3-4)cc2)CC1 | band 2 |
| CC(C)CCNCc1ccc(-c2nnc3n2-c2cccnc2Nc2ccccc2-3)cc1 | band 3 |
| OCC1CCN(Cc2ccc(-c3nnc4n3-c3cccnc3Nc3ccccc3-4)cc2)CC1 | band 3 |
| CC(C)CC(=O)Nc1ccc(-c2nnc3n2-c2cccnc2Nc2ccccc2-3)cc1 | band 1 |
| c1ccc(CN2CCN(Cc3ccc(-c4nnc5n4-c4cccnc4Nc4ccccc4-5)cc3)CC2)cc1 | band 3 |
| O=C(C1CCCC1)N1CCN(Cc2ccc(-c3nnc4n3-c3cccnc3Nc3ccccc3-4)cc2)CC1 | band 3 |
| Cc1cccc(S(=O)(=O)NC2(c3ccc(-c4nnc5n4-c4cccnc4Nc4ccccc4-5)cc3)CCC2)c1 | band 1 |
| O=C(NCc1ccc(-c2nnc3n2-c2cccnc2Nc2ccccc2-3)cc1)Nc1ccc(F)cc1 | band 2 |
| CC(C)(C)C(=O)Nc1ccc(-c2nnc3n2-c2cccnc2Nc2ccccc2-3)cc1 | band 1 |
| Brc1ccc2c(c1)-c1nnc(-c3ccc(CN4CCC(c5nnc(-c6ccccn6)[nH]5)CC4)cc3)n1-c1cccnc1N2 | band 1 |
| O=C(NCc1ccc(-c2nnc3n2-c2cccnc2Nc2ccccc2-3)cc1)c1ccco1 | band 2 |
| Cc1noc(C)c1S(=O)(=O)NC1CCN(Cc2ccc(-c3nnc4n3-c3cccnc3Nc3ccccc3-4)cc2)CC1 | band 3 |
| c1ccc2c(c1)Nc1ncccc1-n1c(-c3ccc(CN4CCCC4)cc3)nnc1-2 | band 3 |
| c1ccc(-c2nnc3n2-c2cccnc2Nc2ccccc2-3)cc1 | band 2 |
